assay-target: T1, Myo5, Q04439
T1 sequence (Q04439 1072-1160, looked up): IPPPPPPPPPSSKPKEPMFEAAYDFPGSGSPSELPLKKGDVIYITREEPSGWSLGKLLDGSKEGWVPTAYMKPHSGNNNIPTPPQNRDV
run-description: SPOT array
assay-context: median of control spots 471
So I've got a bunch of binders here, and I need their SPOT intensity values.
Answers are plain numbers.

Would you please look over these solved cases?
RRSKSLPITPKSIFN: 0
TTAPALPSLPPPPLL: 651

Provide SPOT intensity values for the following items, in order.
1. HVRRSILALPLGVLL
2. QTMRQAPKRPDADVA

OUTPUT:
[1, 103]
